Assay info: growth suppression of PTEN-deleted HCT116, pilot screen, cell-based, HCT116 clonal line, CellTiter-Glo (AID 824);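 also: 0% = 20 µM Hyamine control and 100% = vehicle cell control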
Run conditions: 60 h, at 10 µM, stronger effect = lower value
Inconclusive results are not listed.

Smiles code: C=CCN(c1ccccc1)S(=O)(=O)c1ccc2c(c1)oc(=O)n2C
viability, %: 87.6

Smiles code: O=c1cc(-c2c(F)c(F)c(F)c(F)c2F)oc2c(F)c(F)c(F)c(F)c12
viability, %: 1.25

Smiles code: Cc1ccc(O)c(-c2cc(C(F)(F)C(F)F)[nH]n2)c1
viability, %: 87.3

Smiles code: Cc1nc(-c2ccc(S(=O)(=O)N3CCCCCC3)cc2)cs1
viability, %: 89.7

Smiles code: COCCCNC(=O)c1cn(C)c(=O)c2cc(OC)c(OC)cc12
viability, %: 103

Smiles code: c1ccc(-c2nnc(SCc3nc4ccccc4[nH]3)n2Cc2ccco2)nc1
viability, %: 91

====

Assay info: 384-well plate pilot, post-Golgi transport modulator project, inhibition of yeast transport mutant growth (AID 636)
Run conditions: absorbance 615 nm, about 18 h, stronger effect = higher value

Compound: CC(C)=CC(=O)N1CCCc2ccccc21
inhibition, %: -4.53
//
Compound: COC(=O)c1cc(S(=O)(=O)N2CCC(C)CC2)ccc1F
inhibition, %: -3.51
//
Compound: Cc1ccc(-c2cc(C(=O)Nc3cc(C)ccc3C)[nH]n2)c(O)c1
inhibition, %: -3.16
//
Compound: CC(=O)Nc1ccc(OCC(O)CN2CCN(c3cccc(Cl)c3)CC2)cc1 (stereo unspecified)
inhibition, %: -7.84
//
Compound: Cc1nnc(N2C(=O)c3oc4ccccc4c(=O)c3C2c2ccco2)s1 (stereo unspecified)
inhibition, %: -1.54
//
Compound: CC(C)COc1nc2ccccc2nc1C(C#N)C(=O)NC1CCCCC1 (stereo unspecified)
inhibition, %: -4.67
//
Compound: COc1ccc(/C=N/n2c(=O)[nH]c3c([nH]c4ccc(C)cc43)c2=O)cc1CN1CCOCC1
inhibition, %: -1.71
//
Compound: Cc1ccc2nc(NC(=O)C3CCCN(S(=O)(=O)c4cnc[nH]4)C3)sc2c1 (stereo unspecified)
inhibition, %: -2.67
//
Compound: COc1ccc(N2CC(C(=O)Nc3ccc(F)cc3F)CC2=O)cc1 (stereo unspecified)
inhibition, %: -3.47
//
Compound: CN(C)c1ccc(CNCCC2(O)CCOC(C)(C)C2)cc1 (stereo unspecified)
inhibition, %: -6.08
//
Compound: O=C(CCCCC(=O)NCc1cccs1)NCc1cccs1
inhibition, %: 1.2
//
Compound: O=S(=O)(c1cccs1)N1CCN(C/C=C/c2ccccc2)CC1
inhibition, %: -3.73
//
Compound: N#CCCNCC1(c2ccccc2)CCCC1
inhibition, %: 2.97
//
Compound: CC(C)(C)C(=O)Cn1c[n+](N)cn1
inhibition, %: -4.67
//
Compound: Cn1c(=O)n(CC(=O)OCc2ccccc2)c(=O)c2c1nc1n2CCCN1C1CCCCC1
inhibition, %: -6.35
//
Compound: C=C(c1cccc2ccccc12)P(=O)(O)O
inhibition, %: -6.45
//
Compound: COc1ccc(OC)c(C(=O)c2nc3c(n2O)CCCCC3)c1
inhibition, %: -5.13
//
Compound: CCc1cc(C(=O)OC)c(NC(=O)CCC(=O)O)s1
inhibition, %: -2.53
//
Compound: Cn1cnc(S(=O)(=O)NCc2cccs2)c1
inhibition, %: 0.68
//
Compound: Cc1ccc(-n2nc(-c3cccs3)cc2C(=O)NCC2CCCO2)c(C)c1 (stereo unspecified)
inhibition, %: -4.67
//
Compound: Nc1c(C(=O)NCCc2ccccc2)nnn1Cc1ccccc1
inhibition, %: -8.55
//
Compound: Cc1ccc2cc(C(c3nnnn3CC3CCCO3)N3CCCC4(CCCCC4)C3)c(=O)[nH]c2c1 (stereo unspecified)
inhibition, %: -7.27
//
Compound: CCCCSc1nc2c(cnn2-c2ccc(Cl)cc2)c(=O)[nH]1
inhibition, %: -4.93
//
Compound: Cn1cccc1Cc1nnc(SCC(=O)Nc2ccc(F)cc2)n1-c1ccc(F)cc1
inhibition, %: 0
//
Compound: C=CCSC1=C(C#N)C(c2ccccc2OCC)CC(=O)N1 (stereo unspecified)
inhibition, %: -5.39
//
Compound: c1ccc2c(Cn3ccnc3)c[nH]c2c1
inhibition, %: -5.19
//
Compound: Cc1ccc(C)n1NC(=O)c1ccco1
inhibition, %: -2.76
//
Compound: Cn1nc(C(=O)Nc2cccc(C(F)(F)F)c2)ccc1=O
inhibition, %: -3.29
//
Compound: CCOC(=O)CSc1nnc([C@H](CC(C)C)NC(=O)OC(C)(C)C)o1
inhibition, %: -3.6
//
Compound: COC(=O)c1c(O)ccc(Oc2ccccc2)c1C(=O)OC
inhibition, %: -4.49
//
Compound: O=C(N1CCOCC1)N1CCC(NC(=O)C23CC4CC(CC(C4)C2)C3)CC1
inhibition, %: -6
//
Compound: O=C(CSc1nnc(-c2ccc(Br)o2)n1Cc1ccccc1)c1ccccc1F
inhibition, %: 3.11
//
Compound: Cc1ccc(S(=O)(=O)NCC(=O)N(CC(=O)NC2CCCCC2)Cc2ccco2)cc1
inhibition, %: -5.87
//
Compound: Cc1cc(Br)ccc1NC(=O)CNC(=O)CSc1n[nH]c(N)n1
inhibition, %: -6.22
//
Compound: OCCNCCCCOc1ccccc1F
inhibition, %: 2.69
//
Compound: COc1ccc(C2C(C(=O)NCCN3CCOCC3)c3ccccc3C(=O)N2C2CCCCC2)cc1 (stereo unspecified)
inhibition, %: -3.33
//
Compound: CC(=O)NCCn1c(SCC(=O)NCC2CCCO2)nc2ccccc2c1=O (stereo unspecified)
inhibition, %: -0.26
//
Compound: Cc1cccc2cc(CN(CC3CCCO3)C(=O)c3cnccn3)c(=O)[nH]c12 (stereo unspecified)
inhibition, %: -1.43
//
Compound: O=C(C1CCN(c2nnnn2-c2ccccc2)CC1)N1CCN(c2ccccc2)CC1
inhibition, %: -5.27
//
Compound: CCOC(=O)c1sc(NC(=O)CNC(=O)Cn2cnc3sc(C)c(C)c3c2=O)nc1C
inhibition, %: 1.18
//
Compound: Cc1cc(C(=O)NCc2cccnc2)n(-c2ccccc2)n1
inhibition, %: -0.93
//
Compound: COCCCn1c2nc3ccccc3nc2c2c(=O)n(-c3ccccc3OC)cnc21
inhibition, %: -0.8
//
Compound: O=C(Nc1cccc(F)c1)c1ccc2c(c1)OCO2
inhibition, %: -2.63
//
Compound: Cc1ccc(C(=O)NCc2ccc3c(c2)OCO3)cc1S(=O)(=O)N1CCCCC1
inhibition, %: -3.2
//
Compound: COc1cc(S(=O)(=O)NC2CCCCC2)ccc1Cl
inhibition, %: -3.95
//
Compound: COc1cc(C2C(C(=O)c3ccc(C)o3)=C(O)C(=O)N2c2cc(C)on2)cc(Br)c1O (stereo unspecified)
inhibition, %: -1.97
